Tested on: albumin (secreted, cellular toxicity marker)
assayOverview: Albumin (in vitro tox), HepaRG
Format: cell-based
conditionInfo: human, HepG2.2.15-derived HBV GT D, MOI 125, read-out: In vitro tox albumin IC50 (μM) Median
Method: Following 4 day of maturation with 1 μM MB-1, HLC were incubated with HBV (purified from CHB individuals) at multiplicity of infection (MOI) 10-40 without PEG for 24 hr; virus inoculum was removed the following day. HBV infection in PHH was performed at MOI 40+4% PEG. […] Compound effect on HBV and cellular toxicity was measured by multiplex assay (HBsAg, HBeAg, albumin), branched DNA (pgRNA), or digital PCR (cccDNA) and depicted as % of inhibition compared to DMSO control. […]
assayEndpoint: IC50 (µM)
Value expressed in µM; do not type the unit.

**Q:** Requested read-out IC50, target or system albumin (secreted, cellular toxicity marker), entry O=C(NC(CO)CO)c1c[nH]c2ncc(C3CC3)nc12
**A:** 26.6
